All values here come from patent US20240132589A1.

Field: Bmax (MFI). Provide a value for each of the binders that follow.
Target: T1, Human LILRA6 on transiently transfected HEK293-6E cells (human, UniProt Q6PI73 24-481)
T1 construct: whole, on cells; also called hLILRA6
T1 sequence (Q6PI73 24-481): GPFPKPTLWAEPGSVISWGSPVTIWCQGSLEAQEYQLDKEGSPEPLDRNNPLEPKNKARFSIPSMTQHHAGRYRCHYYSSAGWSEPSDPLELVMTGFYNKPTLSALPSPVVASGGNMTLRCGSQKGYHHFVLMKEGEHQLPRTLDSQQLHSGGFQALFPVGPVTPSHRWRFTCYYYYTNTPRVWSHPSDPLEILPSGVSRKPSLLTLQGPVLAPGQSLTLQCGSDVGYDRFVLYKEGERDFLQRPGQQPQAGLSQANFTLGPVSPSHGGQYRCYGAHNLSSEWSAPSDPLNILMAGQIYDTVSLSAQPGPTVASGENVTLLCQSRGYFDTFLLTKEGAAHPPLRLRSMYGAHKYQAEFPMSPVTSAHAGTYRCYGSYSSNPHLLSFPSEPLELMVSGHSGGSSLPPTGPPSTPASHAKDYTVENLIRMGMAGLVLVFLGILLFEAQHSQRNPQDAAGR
Assay: flow cytometry, transiently transfected HEK293-6E cells
Your answer is read as MFI, so omit the unit and give the number.

The recorded Bmax (MFI) for B2H1-11 (antibody, V domains shown, Humanized variant, human IgG1 / kappa) VH: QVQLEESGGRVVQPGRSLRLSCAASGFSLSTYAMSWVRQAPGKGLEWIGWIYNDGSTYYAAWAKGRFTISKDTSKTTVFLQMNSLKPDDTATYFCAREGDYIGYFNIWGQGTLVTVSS VL: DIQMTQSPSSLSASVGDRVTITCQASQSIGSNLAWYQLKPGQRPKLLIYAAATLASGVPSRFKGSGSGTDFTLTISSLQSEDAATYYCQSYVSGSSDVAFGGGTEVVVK is 210

The recorded Bmax (MFI) for B2H1-55 (antibody, V domains shown, Humanized variant, human IgG1 / kappa; also called humanized variant B2H1-55; humanized LILRB2 antibody B2H1-55) VH: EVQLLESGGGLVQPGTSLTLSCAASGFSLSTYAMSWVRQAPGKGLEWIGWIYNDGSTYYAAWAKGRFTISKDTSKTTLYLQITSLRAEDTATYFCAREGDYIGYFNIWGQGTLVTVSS VL: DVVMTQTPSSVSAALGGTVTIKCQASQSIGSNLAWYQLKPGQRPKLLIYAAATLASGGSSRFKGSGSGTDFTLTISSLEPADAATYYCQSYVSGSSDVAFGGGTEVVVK is 214

The recorded Bmax (MFI) for B2H1-35 (antibody, V domains shown, Humanized variant, human IgG1 / kappa) VH: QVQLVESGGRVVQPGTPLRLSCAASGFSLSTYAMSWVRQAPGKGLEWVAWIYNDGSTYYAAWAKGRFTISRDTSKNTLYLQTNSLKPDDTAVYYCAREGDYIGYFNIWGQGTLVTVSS VL: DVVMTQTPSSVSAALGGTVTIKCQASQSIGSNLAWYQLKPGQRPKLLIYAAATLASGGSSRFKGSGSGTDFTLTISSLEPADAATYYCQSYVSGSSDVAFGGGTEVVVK is 202

The recorded Bmax (MFI) for B2H1-52 (antibody, V domains shown, Humanized variant, human IgG1 / kappa) VH: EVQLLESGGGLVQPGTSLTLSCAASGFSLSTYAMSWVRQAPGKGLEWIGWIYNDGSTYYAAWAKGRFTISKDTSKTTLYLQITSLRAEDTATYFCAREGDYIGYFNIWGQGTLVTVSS VL: DVVMTQSPSSVSASLGDRVTITCQASQSIGSNLAWYQQKPGQAPKLLIYAAATLASGVPSRFKGSGSGTDFTLTITSLQPADFATYYCQSYVSGSSDVAFGGGTKVEIK is 219
